# Method Summary: NCI Yeast Anticancer Drug Screen. Data for the rad50 strain (AID 155);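 also: 0% = growth of vehicle-only cultures of the same strain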
# Condition Parameters: S. cerevisiae rad50 strain growth inhibition; at 5.0 µM (retest, dose inferred, filed as 0.5)
# Experimental: Growth inhibition of yeast strains with defined genetic alterations is measured as a screen for potential anti-cancer activity. Selected strains with alterations in DNA damage repair or cell cycle control were exposed to compounds and growth inhibition was measured relative to vehicle treated controls. The strain used in this assay is rad50
This is part of a sample that, as a whole, favours compounds with a hit. Of some 79,000 tested, about 15% had one in any assay. Active and inactive are the calls of the source. Rule as the data show it: active = growth inhibition above about 70%; inactive = the rest.
Use one of these outcomes when replying: active, inactive

1. O=C(CCCN1CCc2[nH]c3cc(F)ccc3c2C1)c1ccc(F)cc1 | inactive
2. CCCCCCCCCCCCC1N=C(N)N2CCCC2=C1C(=O)OC (stereo not given) | active
3. O=[N+]([O-])c1ccc(-c2cccc(Cl)c2)c([N+](=O)[O-])c1 | inactive
4. O=C1c2cccc(S(=O)(=O)O)c2C(=O)c2cccc([N+](=O)[O-])c21 | inactive
5. CNC(=O)OC1/C(C)=C\C(C)C(O)C(OC)CC(C)CC2=C(OC)C(=O)C=C(C2=O)N(C)C(=O)/C(C)=C/C=C\C1OC (stereo not given) | inactive

Query: Could you please tell me the result logged for CC(CC(C)[C@H]1CCC2[C@H]3C(CC(=O)[C@@]21C)[C@@]1(C)CCC(O)C[C@H]1C[C@@H]3O)C(=O)O (stereo not given in full) in this assay?
Reply: inactive

Query: Could you please tell me the result logged for Cc1[nH]nc(-c2cccnc2)c1N=NN1CCOCC1 in this assay?
Reply: inactive

Query: Could you please tell me the result logged for O=C(CC(=O)c1ccccc1)CC(=O)c1ccccc1Br in this assay?
Reply: inactive

Query: Could you please tell me the result logged for CCN(CC)CCC(=O)c1ccc(Oc2ccc(C)cc2)cc1 in this assay?
Reply: inactive

Query: Could you please tell me the result logged for CS(=O)(=O)c1ccc(C[N+]23CN4CN(CN(C4)C2)C3)cc1 in this assay?
Reply: inactive

###

# Method Summary: NCI Yeast Anticancer Drug Screen. Data for the bub3 strain (AID 167)
# Condition Parameters: S. cerevisiae bub3 mutant strain, at 50.0 µM
About 79,000 compounds went through this panel and 15% of them were active in at least one assay; those are over-represented in the sample as a whole. Calls of active or inactive are those of the source. Cut-off read from the data, not from the text of the source: active = growth inhibition above about 70%; inactive = the rest.
Use one of these outcomes when replying: active, inactive

1. Oc1ccc(-c2nnc(-c3ccc(Cl)cc3Cl)o2)cc1 | inactive
2. O=C(NCC#CCO)C(F)(F)F | inactive
3. O=C(/C=C/c1cccc2ccccc12)c1cccc([N+](=O)[O-])c1 | inactive
4. COc1ccc2c(c1)CC[C@@H]1[C@@H]2CC[C@]2(C)/C(=N/OCCN3CCCC3)CC[C@@H]12 | active
5. O=C1/C(=C/c2cccc(Br)c2)CCc2ccccc21 | active
6. O=C(N/C(=C\c1ccc(/C=C(\NC(=O)c2ccccc2)c2nc3ccccc3s2)cc1)c1nc2ccccc2s1)c1ccccc1 | active

Query: Could you please tell me the result logged for CC(C)(C)c1ccc(Sc2ncnc3ccccc23)cc1 in this assay?
Reply: active

Query: Could you please tell me the result logged for COc1ccc(C(CC(=O)c2ccc(C)cc2)Sc2ccccc2N)cc1 (stereo not given) in this assay?
Reply: inactive

Query: Could you please tell me the result logged for c1ccc([CH2][Sn]([CH2]c2ccccc2)([S]c2cccc3cccnc23)[S]c2cccc3cccnc23)cc1 in this assay?
Reply: active

Query: Could you please tell me the result logged for CCCCCc1[nH]nc(C(=O)OC)c1N=NN1CCOCC1 in this assay?
Reply: active

###

# Method Summary: NCI Yeast Anticancer Drug Screen. Data for the rad50 strain (AID 155);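 also: 0% = growth of vehicle-only cultures of the same strain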
# Condition Parameters: S. cerevisiae rad50 strain growth inhibition; at 50.0 µM
Compounds without any hit were thinned out: in the full panel of roughly 79,000, 15% have a hit. Calls of active or inactive are those of the source. No stated cut-off is given here; in the data, active means growth inhibition above about 70%; inactive means the rest.
Use one of these outcomes when replying: active, inactive

1. Cc1ccc(S(=O)(=O)OC(C=O)C(O)C(O)COC(c2ccccc2)(c2ccccc2)c2ccccc2)cc1 (stereo unspecified) | active
2. N#CCc1ccccc1-c1cccc2ccccc12 | inactive

Query: Could you please tell me the result logged for COc1ccc2nc(N/N=C/c3ccccn3)cc(C)c2c1 in this assay?
Reply: active

Query: Could you please tell me the result logged for Cc1cc(O)ccc1SC#N in this assay?
Reply: active

Query: Could you please tell me the result logged for O=C(Nc1ccccc1-c1nn(CN2CCNCC2)c(=S)n(CN2CCNCC2)c1=O)C(F)(F)F in this assay?
Reply: inactive

Query: Could you please tell me the result logged for CCCCC/C(=C/C=C/c1ccc(Cl)cc1)CN(C)C in this assay?
Reply: active

###

Quick list: growth inhibition per entry.
# Method Summary: NCI Yeast Anticancer Drug Screen. Data for the cln2 rad14 strain (AID 165);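 also: 0% = growth equal to vehicle treated cultures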
# Condition Parameters: S. cerevisiae cln2 rad14 strain, at 5.0 µM (retest, dose inferred, filed as 0.5), active compounds read high
Compounds without any hit were thinned out: in the full panel of roughly 79,000, 15% have a hit.
Express it in %; write the number only.

// solved cases for growth inhibition follow
1. Cc1cccc2ccc3cc(CC(=O)O)c4cccc(C)c4c3c12 | 33
2. CCCCCCCCN(CCCCCCCC)Cc1ccc(Br)cc1 | 97
3. CCCCCCCCCCCCc1ccc(S(=O)(=O)O)cc1.[Zn+2] | 3
4. C=Cc1ccccc1C1(O)C=CC(OC)(OC)C=C1 | 17
5. CC(CN1CCCCCCC1)C(c1ccccc1)c1ccccc1 (configuration not stated) | -5

Query: Which measured growth inhibition value corresponds to CCC[CH2][Sn]([CH2]CCC)([O]C(=O)c1cc(F)ccc1F)[O]C(=O)c1cc(F)ccc1F ?
Reply: 13

Query: Which measured growth inhibition value corresponds to Cc1nc(-c2ccccc2)nc2c1nc(C(C)C)n2Nc1ccccc1 ?
Reply: -9

Query: Which measured growth inhibition value corresponds to O=C1C(c2ccc([N+](=O)[O-])cc2)=C(Cl)C(=O)c2c(O)cccc21 ?
Reply: 8

Query: Which measured growth inhibition value corresponds to CC(=O)Nc1cc(F)c2c(c1)Cc1ccccc1-2 ?
Reply: 0

Query: Which measured growth inhibition value corresponds to CCOC(=O)c1ccccc1NC(OCC)C(=O)c1ccccc1 (configuration not stated) (tested in a mixture with another compound) ?
Reply: -3

Query: Which measured growth inhibition value corresponds to CCCCCCCCCCCCCCC(=O)OCC[N+](C)(C)C ?
Reply: 33

###

# Method Summary: NCI Yeast Anticancer Drug Screen. Data for the mec2-1 strain (AID 157)
# Condition Parameters: S. cerevisiae mec2-1 strain, at 5.0 µM (retest, dose inferred, filed as 0.5), active compounds read high
This is part of a sample that, as a whole, favours compounds with a hit. Of some 79,000 tested, about 15% had one in any assay.
Readout: growth inhibition (%)
Express it in %; write the number only.

// solved cases for growth inhibition follow
1) Cc1ccc(/C=C2\CCCC(CN3CCCCC3)C2=O)cc1 (stereo unspecified) | 34
2) CC(C)=NOc1ccc([N+](=O)[O-])cc1[N+](=O)[O-] | 11
3) O=C1CCCC/C1=C/c1ccc(Cl)cc1 | -49
4) CCCOc1cc(C(=O)OCCN(CC)CC)cc(OCCC)c1OCCC | 6
5) O=C1/C(=C/c2ccc3c(c2)OCO3)Sc2scc(-c3ccc(O)c(O)c3)[n+]21 | 33
6) OC(C/C(CNNc1ccccc1)=N/Nc1ccccc1)(C(F)(F)F)C(F)(F)F | -2
7) O=c1cccc(C2CCc3cc(O)ccc3C2)[nH]1 (stereo unspecified) | 3
8) CCOc1ccccc1NC1=C(Cl)C(=O)c2ccccc2C1=O | 99
9) O=C(O)C(Cc1cc(I)c(O)c(I)c1)c1ccccc1 (stereo unspecified) | -1
10) O=Cc1nc2c3cccnc3ccc2n1Cc1ccccc1 | -17

Turning to the following molecule.
Query: Which measured growth inhibition value corresponds to Oc1c(C(O)(c2ccccc2)c2ccc3ccccc3c2O)ccc2ccccc12 ?
Reply: 3

###

# Method Summary: NCI Yeast Anticancer Drug Screen. Data for the sgs1 mgt1 strain (AID 161);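 also: 0% = growth of cultures given vehicle only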
# Condition Parameters: S. cerevisiae sgs1 mgt1 strain, at 50.0 µM
The panel holds about 79,000 compounds, 15% with a hit somewhere; the sample as a whole holds those more often. Calls of active or inactive are those of the source. Rule as the data show it: active = growth inhibition above about 70%; inactive = the rest.
Use one of these outcomes when replying: active, inactive

Examples from the recorded data:
1. CCCCC(O)CCCC | inactive
2. C=C1C(=O)C23CC[C@H]4C(C)(CCC[C@]4(C)C(=O)O)[C@@H]2CCC1C3 (stereo partly specified) | active
3. CN(C)c1nc(-c2ccccc2)cc(-c2ccc(O)cc2)n1 | inactive
4. CC12CCCCC1CCC(Br)C2=O (stereo unspecified) | active
5. CN1CCS(=O)(=O)C1=O | inactive
6. O=C(OCc1ccccc1CN1CCOCC1)c1cccc(Br)c1 | active
7. CC1(c2ccc(Cl)cc2)OC(=O)C(=Cc2ccc([N+](=O)[O-])s2)C(=O)O1 (stereo unspecified) | active
8. O=c1oc2ccccc2c(O)c1/C=N/C(=S)NCc1ccccc1 | active

Query: Could you please tell me the result logged for Cc1c(N2CCCC2)cc2c(c1NC(=O)c1ccccc1Cl)C(C)(C)CC2(C)C in this assay?
Reply: active

Query: Could you please tell me the result logged for CC(C)N(CCO)CC(O)Cn1cnc2c(N)ncnc21 (stereo unspecified) (tested in a mixture with another compound) in this assay?
Reply: inactive

Query: Could you please tell me the result logged for O=C1/C(=C/c2ccc3c(c2)OCO3)Sc2scc(-c3ccc(O)c(O)c3)[n+]21 in this assay?
Reply: active
